# Tested on: 282377-053-R-J1-PDC complex spheroid viability;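 note: spheroids exposed to agents for seven days before readout; luminescence viability as percent of DMSO vehicle control wells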
# assay.comment: Anticancer human tumor 282377-053-R-J1-PDC patient-derived colon adenocarcinoma cell line growth inhibition [RAS]
# condition.parameters: second compound 0.03 µM; first compound 0.3 µM; stronger effect = lower value
# From the text: RAS pathway inhibitors in Combinations in Complex Spheroids A high-throughput screen of multi-cell type tumor spheroids was designed to identify active combinations of RAS pathway inhibitors and targeted small molecules. Complex spheroids include a stromal component modeled by human endothelial cells (HUVEC) and fibroblasts modeled by human mesenchymal stem cells (MSCs). […] Compounds. […] If the clinical Cmax for an agent had not been determined, the highest concentration tested was 10 microM. […]
experimental.readout: viability, T/C (%)
Just the number in %, nothing appended.

Consider the worked cases shown below.
{"molecule": "CC1(C)CCC(Nc2ncc(C(F)(F)F)c(-c3c[nH]c4c(P(C)(C)=O)c(C#N)ccc34)n2)CN1 (centres undefined) + CCn1c(-c2cc(N3CCN(C)CC3)cnc2C(C)OC)c2c3cc(ccc31)-c1csc(n1)CC(NC(=O)C1CC1C)C(=O)N1CCCC(N1)C(=O)OCC(C)(C)C2", "viability, T/C [%]": 84.3}
{"molecule": "CCc1c2c(nc3ccc(O)cc13)-c1cc3c(c(=O)n1C2)COC(=O)[C@]3(O)CC + CCn1c(-c2cccnc2C(C)OC)c2c3cc(ccc31)N1CCOC(CC(NC(=O)C(C(C)C)N(C)C(=O)C3(F)CCN(C(=O)C#CC(C)(C)N(C)C)CC3)C(=O)N3CCCC(N3)C(=O)OCC(C)(C)C2)C1", "viability, T/C [%]": 94.4}
{"molecule": "CCc1c2c(nc3ccc(O)cc13)-c1cc3c(c(=O)n1C2)COC(=O)[C@]3(O)CC + CCn1c(-c2cc(N3CCN(C)CC3)cnc2C(C)OC)c2c3cc(ccc31)-c1csc(n1)CC(NC(=O)C1CC1C)C(=O)N1CCCC(N1)C(=O)OCC(C)(C)C2", "viability, T/C [%]": 65.4}

Moving on to the next molecule.
**Query** Dear colleague, I am looking for the recorded viability, T/C of the following molecule: CC1(C)CCC(Nc2ncc(C(F)(F)F)c(-c3c[nH]c4c(P(C)(C)=O)c(C#N)ccc34)n2)CN1 (centres undefined) + CCn1c(-c2cccnc2C(C)OC)c2c3cc(ccc31)N1CCOC(CC(NC(=O)C(C(C)C)N(C)C(=O)C3(F)CCN(C(=O)C#CC(C)(C)N(C)C)CC3)C(=O)N3CCCC(N3)C(=O)OCC(C)(C)C2)C1
**Result** 96.9
